target: p110β/p85α (Homo sapiens (Human)); test: PI 3-Kinase (human) HTRF assay, p110β/p85α; assay type: biochemical; settings: in vitro; read-out: PI3K β IC50
Sequence (P42338 whole entry): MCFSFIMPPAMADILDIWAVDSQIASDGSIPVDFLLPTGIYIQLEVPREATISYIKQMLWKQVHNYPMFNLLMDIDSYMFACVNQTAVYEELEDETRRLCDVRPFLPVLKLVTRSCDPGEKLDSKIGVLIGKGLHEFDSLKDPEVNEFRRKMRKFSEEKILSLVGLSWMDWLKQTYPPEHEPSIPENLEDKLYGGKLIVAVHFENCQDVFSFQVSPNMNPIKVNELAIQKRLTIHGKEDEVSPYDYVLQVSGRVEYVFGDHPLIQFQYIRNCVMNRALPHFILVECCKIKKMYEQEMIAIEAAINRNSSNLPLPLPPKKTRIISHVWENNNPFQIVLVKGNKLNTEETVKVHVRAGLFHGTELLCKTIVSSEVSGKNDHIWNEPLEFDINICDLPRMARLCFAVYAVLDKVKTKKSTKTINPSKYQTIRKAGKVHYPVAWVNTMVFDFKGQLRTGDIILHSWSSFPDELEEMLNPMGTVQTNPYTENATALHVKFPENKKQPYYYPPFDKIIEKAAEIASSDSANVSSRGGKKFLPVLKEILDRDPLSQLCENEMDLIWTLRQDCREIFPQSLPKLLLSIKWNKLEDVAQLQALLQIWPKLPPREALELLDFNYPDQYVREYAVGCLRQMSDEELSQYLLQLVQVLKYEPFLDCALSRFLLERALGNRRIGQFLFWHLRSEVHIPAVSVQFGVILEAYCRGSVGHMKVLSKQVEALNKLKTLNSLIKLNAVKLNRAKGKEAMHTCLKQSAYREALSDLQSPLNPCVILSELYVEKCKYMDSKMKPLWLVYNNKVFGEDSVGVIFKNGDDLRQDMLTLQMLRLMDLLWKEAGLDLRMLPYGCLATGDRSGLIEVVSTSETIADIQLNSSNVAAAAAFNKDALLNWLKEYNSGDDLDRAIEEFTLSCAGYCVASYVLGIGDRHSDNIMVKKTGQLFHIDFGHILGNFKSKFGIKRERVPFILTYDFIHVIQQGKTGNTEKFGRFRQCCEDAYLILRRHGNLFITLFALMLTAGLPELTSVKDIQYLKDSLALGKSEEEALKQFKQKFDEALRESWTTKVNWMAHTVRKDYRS
Sequence (P27986 whole entry partner): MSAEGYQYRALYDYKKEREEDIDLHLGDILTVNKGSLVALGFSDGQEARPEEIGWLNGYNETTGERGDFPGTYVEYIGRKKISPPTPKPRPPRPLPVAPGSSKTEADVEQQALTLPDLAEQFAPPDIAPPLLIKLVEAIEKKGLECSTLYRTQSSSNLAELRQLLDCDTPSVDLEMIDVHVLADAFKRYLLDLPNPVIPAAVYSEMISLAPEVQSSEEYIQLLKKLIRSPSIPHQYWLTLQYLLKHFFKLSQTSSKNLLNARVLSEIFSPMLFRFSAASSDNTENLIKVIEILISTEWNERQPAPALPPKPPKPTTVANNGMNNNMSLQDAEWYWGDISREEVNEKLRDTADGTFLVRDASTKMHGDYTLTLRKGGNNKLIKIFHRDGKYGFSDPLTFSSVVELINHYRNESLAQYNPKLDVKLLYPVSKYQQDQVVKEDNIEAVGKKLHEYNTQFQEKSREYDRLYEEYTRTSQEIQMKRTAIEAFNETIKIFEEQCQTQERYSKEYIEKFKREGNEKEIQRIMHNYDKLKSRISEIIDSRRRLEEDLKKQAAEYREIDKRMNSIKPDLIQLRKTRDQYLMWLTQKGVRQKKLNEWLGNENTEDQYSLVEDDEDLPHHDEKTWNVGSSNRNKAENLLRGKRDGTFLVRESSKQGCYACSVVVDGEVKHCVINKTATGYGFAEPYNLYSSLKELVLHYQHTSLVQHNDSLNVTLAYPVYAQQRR
Below, each entry is listed with its recorded IC50.

Known results for compounds:
Nc1nc2cc(-c3ccc4ncc(N5CC(N6CCN(CCO)CC6)C5)nc4c3)ccc2o1 | < 10000 nM
CN1CCN(c2cnc3ccc(-c4ccc5oc(N)nc5c4)cc3n2)CC1=O | < 1000 nM
COCCn1cnc2ccc(-c3ccc4oc(N)nc4c3)cc2c1=O | < 10000 nM
Nc1nc2ccc(-c3ccc4nnc(-c5cccnc5)n4c3)cc2o1 | < 10000 nM
Nc1nc2cc(-c3ccn4ncc(-c5ccncc5)c4c3)ccc2o1 | < 100 nM

Task item: Given the entry CCN1CCN(C2CN(c3cnc4ccc(-c5ccc6oc(N)nc6c5)cc4n3)C2)CC1 , report its measured IC50.
Reply: < 1000 nM

Task item: Given the entry NC(=O)[C@H]1CCCN1C(=O)C1CN(c2cnc3ccc(-c4ccc5oc(N)nc5c4)cc3n2)C1 , report its measured IC50.
Reply: < 10000 nM

Task item: Given the entry Nc1nc2cc(-c3ccc4ncc(N5CC(N6CCNC(=O)C6)C5)nc4c3)ccc2o1 , report its measured IC50.
Reply: < 1000 nM

Task item: Given the entry CN1CCN(CCNc2cnc3ccc(-c4ccc5oc(N)nc5c4)cc3n2)CC1 , report its measured IC50.
Reply: < 1000 nM

Task item: Given the entry CN1CCN([C@H]2CCN(c3cnc4ccc(-c5ccc6oc(N)nc6c5)cc4n3)C2)CC1 , report its measured IC50.
Reply: < 1000 nM

Task item: Given the entry Nc1nc2cc(-c3ccc4ncc(N5CC(O)C5)nc4c3)ccc2o1 , report its measured IC50.
Reply: < 1000 nM

====

target: p110γ (Homo sapiens (Human)); experiment: PI 3-Kinase (human) HTRF assay, p110γ; type: biochemical; details: read-out: PI3K γ IC50
Below, each entry is listed with its recorded IC50.

Known results for compounds:
CC1CN(c2cnc3ccc(-c4ccc5oc(N)nc5c4)cc3n2)CCN1 (stereo not drawn) | < 1000 nM
CCN1CCN(c2cnc3ccc(-c4ccc5oc(N)nc5c4)cc3n2)CC1 | < 1000 nM
Nc1nc2cc(-c3ccc4ncc(-c5ccncc5)n4n3)ccc2o1 | < 100 nM
Nc1nc2cc(-c3ccc4ncc(-c5ccncc5)nc4c3)ccc2o1 | < 100 nM
Nc1nc2cc(-c3ccc4ncnc(N5CCC(O)CC5)c4c3)ccc2o1 | < 100 nM

# next compound below
Task item: Given the entry Nc1nc2cc(-c3ccc4ncc(-c5ccncc5)n4c3)ccc2o1 , report its measured IC50.
Reply: < 100 nM

====

Below, each entry is listed with its recorded pIC50.
molecular target: p110γ (Homo sapiens (Human)); assay: PI 3-Kinase (human) HTRF assay, p110γ; assay type: biochemical; conditions: read-out: PI3K γ IC50
pIC50: −log10 of the molar value.

Known results for molecules:
Nc1nc2cc(-c3ccc4ncc(C(=O)NCCO)n4c3)ccc2o1 | > 6.00
Nc1nc2cccc(-c3ccc4nccc(-c5ccncc5)c4c3)c2o1 | > 6.00

# next molecule below
Task item: Given the entry CS(=O)(=O)CCN1CCC(Nc2cnc3ccc(-c4ccc5oc(N)nc5c4)cc3n2)CC1 , report its measured pIC50.
Reply: > 7.00

====

Below, each entry is listed with its recorded IC50.
target: p110δ/p85α (Homo sapiens (Human), UniProt O00329); assay: PI 3-Kinase (human) HTRF assay, p110δ/p85α; type: biochemical; details: in vitro; read-out: PI3K δ IC50
Sequence (O00329 whole entry): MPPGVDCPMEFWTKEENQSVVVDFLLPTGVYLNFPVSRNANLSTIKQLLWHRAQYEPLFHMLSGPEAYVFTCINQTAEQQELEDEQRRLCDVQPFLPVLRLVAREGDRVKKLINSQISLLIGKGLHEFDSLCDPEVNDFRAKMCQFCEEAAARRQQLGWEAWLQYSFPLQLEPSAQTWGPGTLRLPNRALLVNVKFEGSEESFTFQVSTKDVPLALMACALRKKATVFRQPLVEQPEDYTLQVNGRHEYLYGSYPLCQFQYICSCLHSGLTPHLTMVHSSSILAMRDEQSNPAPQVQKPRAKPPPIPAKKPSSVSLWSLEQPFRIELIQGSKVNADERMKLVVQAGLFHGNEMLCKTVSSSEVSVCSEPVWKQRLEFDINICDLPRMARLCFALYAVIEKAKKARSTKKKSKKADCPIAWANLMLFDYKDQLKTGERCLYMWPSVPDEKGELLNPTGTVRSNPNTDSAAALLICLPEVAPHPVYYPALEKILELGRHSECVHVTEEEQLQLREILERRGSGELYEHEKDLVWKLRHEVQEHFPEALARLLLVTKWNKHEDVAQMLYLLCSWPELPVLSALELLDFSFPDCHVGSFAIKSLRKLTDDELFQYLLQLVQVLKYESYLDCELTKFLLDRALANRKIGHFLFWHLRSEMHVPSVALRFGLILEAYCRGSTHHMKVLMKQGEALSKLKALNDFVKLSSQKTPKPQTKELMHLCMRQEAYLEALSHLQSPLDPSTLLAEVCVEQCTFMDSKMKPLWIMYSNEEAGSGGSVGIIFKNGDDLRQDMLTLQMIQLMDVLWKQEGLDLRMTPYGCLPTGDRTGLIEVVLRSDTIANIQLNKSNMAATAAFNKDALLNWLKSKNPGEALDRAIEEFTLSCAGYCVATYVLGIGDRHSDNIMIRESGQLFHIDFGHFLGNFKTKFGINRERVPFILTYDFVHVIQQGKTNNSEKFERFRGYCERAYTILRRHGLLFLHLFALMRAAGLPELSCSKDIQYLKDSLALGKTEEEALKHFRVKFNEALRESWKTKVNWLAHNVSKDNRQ
Sequence (P27986 whole entry partner): as the sequence (P27986 whole entry partner) above

Known results for compounds:
CN1CCN(C2CN(c3cnc4ccc(-c5ccc6oc(N)nc6c5)cc4n3)C2)CC1=O | < 10 µM
CN1CCN(CCNc2cnc3ccc(-c4ccc5oc(N)nc5c4)cc3n2)CC1 | < 1 µM
Nc1nc2cc(-c3ccn4ncc(-c5ccncc5)c4c3)ccc2o1 | < 0.1 µM

Task item: Given the entry COc1nc(-c2ccc3oc(N)nc3c2)cnc1N , report its measured IC50.
Reply: < 10 µM

Task item: Given the entry CCN(CC)CCNc1cnc2ccc(-c3ccc4oc(N)nc4c3)cc2n1 , report its measured IC50.
Reply: < 1 µM

Task item: Given the entry Cc1nccn1C1CN(c2cnc3ccc(-c4ccc5oc(N)nc5c4)cc3n2)C1 , report its measured IC50.
Reply: < 10 µM

Task item: Given the entry Nc1nc2cc(-c3ccc4ncc(N5CC(N6CC[C@@H](O)C6)C5)nc4c3)ccc2o1 , report its measured IC50.
Reply: < 10 µM

Task item: Given the entry Nc1nc2cc(-c3ccc4ncc(N5CCN(C(=O)C6(N)CCC6)CC5)nc4c3)ccc2o1 , report its measured IC50.
Reply: < 1 µM

Task item: Given the entry CN1CCN(C(=O)C2CN(c3cnc4ccc(-c5ccc6oc(N)nc6c5)cc4n3)C2)CC1 , report its measured IC50.
Reply: < 10 µM

Task item: Given the entry Nc1nc2cc(-c3ccc4ncc(C(=O)N5CCOCC5)n4c3)c(F)cc2o1 , report its measured IC50.
Reply: < 10 µM

Task item: Given the entry Nc1nc2cc(-c3ccc4ncc(N5CC(N6CCNCC6)C5)nc4c3)ccc2o1 , report its measured IC50.
Reply: < 1 µM

Task item: Given the entry Nc1nc2cc(-c3ccc4ncc(C(=O)NCCCN5CCCC5)n4c3)ccc2o1 , report its measured IC50.
Reply: < 0.1 µM

====

target: p110α/p85α (Homo sapiens (Human), UniProt P42336); assay: PI 3-Kinase (human) HTRF assay, p110α/p85α; assay type: biochemical; details: in vitro; read-out: PI3K α IC50
Sequence (P42336 whole entry, one chain of several): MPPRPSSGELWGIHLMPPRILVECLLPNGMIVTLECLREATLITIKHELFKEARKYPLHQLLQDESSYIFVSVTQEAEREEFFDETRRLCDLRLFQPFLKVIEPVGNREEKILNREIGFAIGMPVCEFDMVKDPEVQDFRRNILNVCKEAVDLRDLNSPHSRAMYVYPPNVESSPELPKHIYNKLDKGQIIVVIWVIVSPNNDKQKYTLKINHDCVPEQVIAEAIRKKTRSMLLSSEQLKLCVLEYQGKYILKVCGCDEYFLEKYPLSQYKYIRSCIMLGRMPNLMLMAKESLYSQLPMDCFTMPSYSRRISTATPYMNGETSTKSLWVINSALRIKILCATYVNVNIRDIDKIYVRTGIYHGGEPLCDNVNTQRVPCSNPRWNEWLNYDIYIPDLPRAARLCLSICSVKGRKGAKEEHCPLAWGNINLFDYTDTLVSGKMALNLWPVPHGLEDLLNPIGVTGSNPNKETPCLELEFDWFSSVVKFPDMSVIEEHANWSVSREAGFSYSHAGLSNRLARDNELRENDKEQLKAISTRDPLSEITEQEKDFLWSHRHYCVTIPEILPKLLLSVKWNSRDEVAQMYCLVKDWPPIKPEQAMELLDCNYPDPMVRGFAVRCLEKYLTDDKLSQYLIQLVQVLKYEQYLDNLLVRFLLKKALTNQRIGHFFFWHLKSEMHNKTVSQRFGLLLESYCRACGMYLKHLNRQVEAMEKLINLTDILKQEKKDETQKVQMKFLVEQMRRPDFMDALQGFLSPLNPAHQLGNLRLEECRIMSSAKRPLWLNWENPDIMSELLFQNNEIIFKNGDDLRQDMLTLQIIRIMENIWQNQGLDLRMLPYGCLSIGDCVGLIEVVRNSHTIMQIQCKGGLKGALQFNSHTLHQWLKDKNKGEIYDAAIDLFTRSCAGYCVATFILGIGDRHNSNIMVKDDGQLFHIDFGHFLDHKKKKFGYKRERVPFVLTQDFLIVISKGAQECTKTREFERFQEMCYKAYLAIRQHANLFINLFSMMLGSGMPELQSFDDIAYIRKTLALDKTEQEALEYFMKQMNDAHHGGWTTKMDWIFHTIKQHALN
pIC50: −log10 of the molar value.
Below, each entry is listed with its recorded pIC50.

CC(C)N1CCN(C(=O)C2CN(c3cnc4ccc(-c5ccc6oc(N)nc6c5)cc4n3)C2)CC1 | > 7.00
CC(C)[C@@H](N)C(=O)N1CCN(c2cnc3ccc(-c4ccc5oc(N)nc5c4)cc3n2)CC1 | > 7.00

Task item: Given the entry Nc1nc2cc(-c3ccc4ncc(C(=O)N5CCOCC5)n4c3)cc(Cl)c2o1 , report its measured pIC50.
Reply: > 7.00

Task item: Given the entry CN1CCN(c2cnc3ccc(-c4ccc5oc(N)nc5c4)cc3n2)C(=O)C1 , report its measured pIC50.
Reply: > 6.00

Task item: Given the entry Nc1nc2cc(-c3ccc4ncc(N5CC(N6CCCC6)C5)nc4c3)ccc2o1 , report its measured pIC50.
Reply: > 6.00

Task item: Given the entry Nc1nc2cc(-c3ccc4ncn(CCN5CCOCC5)c(=O)c4c3)ccc2o1 , report its measured pIC50.
Reply: > 6.00

Task item: Given the entry Cc1c(-c2ccc3oc(N)nc3c2)ccc2ncc(N3CC(N4CCOCC4)C3)nc12 , report its measured pIC50.
Reply: > 6.00

====

target: p110δ/p85α (Homo sapiens (Human)); experiment: PI 3-Kinase (human) HTRF assay, p110δ/p85α; format: biochemical; conditions: read-out: PI3K δ IC50
Below, each entry is listed with its recorded IC50.

Known results for molecules:
Nc1nc2ccc(-c3ccc4nccc(-c5ccncc5)c4c3)cc2o1 | < 100 nM
Nc1nc2cc(-c3ccc4ncc(N5CCN(C(=O)[C@@H]6CCCN6)CC5)nc4c3)ccc2o1 | < 100 nM
CN1CCC(N(C)C(=O)c2cnc3ccc(-c4ccc5oc(N)nc5c4)cn23)CC1 | < 10000 nM
CC(=O)N1CCN(c2cnc3ccc(-c4ccc5oc(N)nc5c4)cc3n2)CC1 | < 100 nM
Nc1nc2cc(-c3ccc4nccc(-c5cn[nH]c5)c4c3)ccc2o1 | < 100 nM
Nc1nc2cc(-c3ccc4ncc(N5CC(C(=O)N6CCOCC6)C5)nc4c3)ccc2o1 | < 1000 nM

Task item: Given the entry Nc1nc2cc(-c3ccc4ncc(N5CCC(O)CC5)nc4c3)ccc2o1 , report its measured IC50.
Reply: < 1000 nM

Task item: Given the entry CN1CCN(C(=O)c2cnc3ccc(-c4ccc5oc(N)nc5c4)cn23)CC1 , report its measured IC50.
Reply: < 10000 nM

Task item: Given the entry Nc1nc2cc(-c3ccc4ncc(C#CC5CC5)n4c3)ccc2o1 , report its measured IC50.
Reply: < 100 nM

Task item: Given the entry CS(=O)(=O)N1CCC(Nc2ncnc3ccc(-c4ccc5oc(N)nc5c4)cc23)CC1 , report its measured IC50.
Reply: < 100 nM

====

molecular target: p110γ (Homo sapiens (Human), UniProt P48736); experiment: PI 3-Kinase (human) HTRF assay, p110γ; format: biochemical; details: read-out: PI3K γ IC50
Sequence (P48736 whole entry): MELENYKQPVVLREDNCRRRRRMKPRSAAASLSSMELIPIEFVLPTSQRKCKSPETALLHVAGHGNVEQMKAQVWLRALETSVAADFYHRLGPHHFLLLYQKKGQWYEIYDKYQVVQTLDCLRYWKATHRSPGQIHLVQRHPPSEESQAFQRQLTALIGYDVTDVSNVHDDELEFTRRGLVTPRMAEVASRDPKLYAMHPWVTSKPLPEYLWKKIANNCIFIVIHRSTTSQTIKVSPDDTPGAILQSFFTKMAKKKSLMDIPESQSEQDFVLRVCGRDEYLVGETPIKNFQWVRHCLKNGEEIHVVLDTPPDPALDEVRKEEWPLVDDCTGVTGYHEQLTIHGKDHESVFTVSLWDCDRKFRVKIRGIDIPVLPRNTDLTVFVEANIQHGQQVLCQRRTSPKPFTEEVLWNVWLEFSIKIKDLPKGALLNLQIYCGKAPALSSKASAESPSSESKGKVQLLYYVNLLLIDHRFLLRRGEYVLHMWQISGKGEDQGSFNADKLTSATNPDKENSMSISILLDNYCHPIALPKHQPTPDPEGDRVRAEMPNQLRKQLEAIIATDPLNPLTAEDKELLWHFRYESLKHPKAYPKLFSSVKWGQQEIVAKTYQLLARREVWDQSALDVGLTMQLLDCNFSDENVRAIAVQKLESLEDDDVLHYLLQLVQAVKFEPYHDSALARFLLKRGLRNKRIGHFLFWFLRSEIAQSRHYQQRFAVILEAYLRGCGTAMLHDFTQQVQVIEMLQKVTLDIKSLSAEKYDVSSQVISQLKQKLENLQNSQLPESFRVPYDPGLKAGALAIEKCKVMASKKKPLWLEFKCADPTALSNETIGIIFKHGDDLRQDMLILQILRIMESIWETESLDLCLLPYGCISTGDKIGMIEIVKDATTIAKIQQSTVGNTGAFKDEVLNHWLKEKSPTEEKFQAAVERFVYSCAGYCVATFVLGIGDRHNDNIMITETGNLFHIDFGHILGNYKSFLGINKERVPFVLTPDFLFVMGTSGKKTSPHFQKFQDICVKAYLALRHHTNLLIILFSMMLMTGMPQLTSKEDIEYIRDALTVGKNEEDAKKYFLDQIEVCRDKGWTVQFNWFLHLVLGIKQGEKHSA
Below, each entry is listed with its recorded IC50.

C[C@H]1CN(c2cnc3ccc(-c4ccc5oc(N)nc5c4)cc3n2)CCN1 [compound 178] | < 1000 nM
Cn1cc(-c2cnc3ccc(-c4ccc5oc(N)nc5c4)cc3n2)cn1 [compound 94] | < 100 nM

# next molecule below
Task item: Given the entry Nc1nc2cc(-c3ccn4ncc(-c5ccncc5)c4n3)ccc2o1 [compound 62] , report its measured IC50.
Reply: < 100 nM
